Molecular target: Mannose-6-phosphate isomerase (Homo sapiens) (UniProt P34949)
Sequence (P34949 whole entry, looked up): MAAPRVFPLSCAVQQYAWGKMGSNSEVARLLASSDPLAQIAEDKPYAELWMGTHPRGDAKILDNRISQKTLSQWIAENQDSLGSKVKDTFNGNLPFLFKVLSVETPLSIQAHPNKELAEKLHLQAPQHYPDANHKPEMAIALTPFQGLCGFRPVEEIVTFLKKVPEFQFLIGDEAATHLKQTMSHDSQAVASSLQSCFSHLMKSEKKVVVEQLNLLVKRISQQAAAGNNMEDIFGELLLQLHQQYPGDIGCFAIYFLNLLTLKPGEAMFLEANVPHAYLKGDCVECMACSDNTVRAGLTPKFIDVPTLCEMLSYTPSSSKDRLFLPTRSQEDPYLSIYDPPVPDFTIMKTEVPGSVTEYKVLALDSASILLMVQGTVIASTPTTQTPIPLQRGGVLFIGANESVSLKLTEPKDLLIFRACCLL
Test: inhibitors of human PMI, primary screen, biochemical, fluorescence intensity, coupled assay (AID 1209);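 also: plate controls were DMSO vehicle for no effect and wells lacking substrate for full effect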
Settings: purified PMI enzyme, at 20 µM
About 810 (0.43%) of roughly 190,000 compounds were called active. Rule as the data show it: active = inhibition above about 50%; inactive = the rest. The sample holds actives, similar compounds and a random draw of the others, so the mix is not that of the screen.
Field 'call' accepts active, inactive

Query: Lab log entry: CC(=O)N(C)c1nnc(-c2ccccn2)s1 — outcome as called in the assay?
Reply: inactive

Query: What do you get for CCN(CC)CCOC(=O)c1c(C)oc2ccc(O)cc12 ?
Reply: active

Query: Next up: COc1ccccc1NS(=O)(=O)c1cccc(NC(=O)c2ccc3ccccc3n2)c1
Reply: inactive

Query: Field entry: Cc1nnc(N/N=C/c2ccc(-c3ccc(Br)cc3)o2)n1N
Reply: inactive

Query: What do we get for O=[N+]([O-])c1cc([N+](=O)[O-])c2c(=Nc3ccccc3)n(-c3ccccc3)n(O)c2c1 ?
Reply: inactive

Query: Now consider CCOC(=O)c1c(C)oc2ccc(O)cc12 .
Reply: inactive

Query: Now the molecule O=c1c2cc(Br)ccc2nc(-c2ccc([N+](=O)[O-])cc2)n1O
Reply: inactive

* * *

Molecular target: Mannose-6-phosphate isomerase (Homo sapiens)
Experiment: inhibitors of human PMI, primary screen, biochemical, fluorescence intensity, coupled assay (AID 1209);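 also: plate controls were DMSO vehicle for no effect and wells lacking substrate for full effect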
Conditions: purified PMI enzyme, at 20 µM
In all, about 190,000 compounds went through this assay and about 810 (0.43%) were called active. Cut-off read from the data, not from the text of the source: active = inhibition above about 50%; inactive = the rest. Only a selection was taken, and actives are over-represented in it overall.
Classes to choose from: active, inactive

These solved cases illustrate the format of a correct answer.
Query: Test call for this molecule, please: O=C(Cc1ccc([N+](=O)[O-])cc1)Nc1cccc(C(F)(F)F)c1
Reply: inactive

Query: Also COc1ccc(C2CC2/C(C)=N/OC(=O)c2cccs2)cc1 (centres undefined) , if possible.
Reply: inactive

Query: Similarly, O=C(CCCN1C(=O)/C(=C/c2ccccc2)SC1=S)Nc1ccc(O)cc1 ?
Reply: active

Query: Same again, this time with O=[N+]([O-])c1cc(Cl)c(O)c2ncccc12
Reply: active

Query: Same lookup for O=[N+]([O-])c1ccccc1NC(=S)N/N=C/c1ccc(O)c(O)c1 , please.
Reply: active

Query: And for COc1ccc(-c2nc(-c3ccccc3)c(-c3cc([N+](=O)[O-])ccc3C)[nH]2)cc1O ?
Reply: inactive

Query: And for N=C1C(c2ccccc2)=C(O)CN1c1cccc(S(N)(=O)=O)c1 ?
Reply: inactive

Query: Do the same for Cc1cc(C)cc(N(C(=O)CNS(=O)(=O)c2ccccc2)C(C(=O)NCc2ccccc2)c2ccc(C)o2)c1 (centres undefined) please
Reply: inactive

Here's the next entry for you.
Query: Please share the test call associated with Cc1[nH]n(-c2ccccc2)c(=O)c1C=Nc1ccc(S(=O)(=O)N(C)C)cc1 .
Reply: inactive

* * *

Target: Mannose-6-phosphate isomerase (Homo sapiens)
Test: inhibitors of human PMI, primary screen, biochemical, fluorescence intensity, coupled assay (AID 1209);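 also: plate controls were DMSO vehicle for no effect and wells lacking substrate for full effect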
Conditions: purified PMI enzyme, at 20 µM
Out of some 190,000 compounds screened, about 810 (0.43%) were called active. Cut-off read from the data, not from the text of the source: active = inhibition above about 50%; inactive = the rest. What follows is part of a selection rich in actives, with near analogues and random picks from the rest.
Valid outcomes are listed here; reply with one: label 1 (active), label 0 (inactive)

Query: Recorded call for Cc1ccc(C(=O)c2ccccc2C(=O)OCC(=O)NCC2CCCO2)cc1 (configuration not stated) ?
Reply: label 0

Query: Input CC1=NN(c2ccccc2)C(=O)/C1=C/C=C/C=C/N(C)C
Reply: label 1

Further cases:
Query: Just curious, what result did CCOC(=O)c1sc(N)c(C(=O)Nc2ccccc2)c1C get here?
Reply: label 0

Query: Next: O=C(/C=C/c1ccccc1)Oc1ccccc1C(=S)N1CCOCC1
Reply: label 0

Query: Also Cc1ccc(-c2cn3c(n2)SCC3)cc1 ?
Reply: label 0

Query: What do you get for COc1ccc(N(C)C(=O)Nc2ccc3nsnc3c2)cc1 ?
Reply: label 1

Query: Lookup O=C(NC1CC1)c1sc2cc([N+](=O)[O-])ccc2c1Cl
Reply: label 0

Query: Same again, this time with O=C(CSc1nc2c(sc3ccccc32)c(=O)n1CCCN1CCCC1)NCC1CCCO1 (configuration not stated)
Reply: label 0

Query: Try CC1Cc2ccccc2N1C(=O)CSc1nnc(-c2ccc(S(=O)(=O)N3CCOCC3)cc2)n1C (configuration not stated) next.
Reply: label 0

Query: Now the same for CN(C)S(=O)(=O)c1cccc(NC(=O)c2cc(-c3cccs3)nn2-c2ccccc2)c1
Reply: label 0

Query: Next up: CC(NC(=O)c1sc2cc([N+](=O)[O-])ccc2c1Cl)C(C)(C)C (configuration not stated)
Reply: label 1

Query: Try this compound next: CCOC(=O)c1c(N)sc2c1CCCC2
Reply: label 0
